compounds and their reported pIC50
Tested on: ring stages of NF54 strain of P. falciparum
Assay: Exposure time dependence in drug activity (pLDH)
Format: cell-based
Conditions: Plasmodium falciparum, NF54, 6 h drug pulse, wash, incubated until 72 h, median ± SEM, read-out: IC50, 6 h + 66 h
pIC50: −log10 of the molar value.
Observable: pIC50

[
  {
    "Compound": "C[C@H]1[C@@H](O)O[C@@H]2O[C@@]3(C)CC[C@H]4[C@H](C)CC[C@@H]1[C@@]24OO3 [DHA, dihydroartemisinin, reference compound]",
    "Reading": 8.30
  },
  {
    "Compound": "CC1CCC2C(C)C(OC(=O)CCC(=O)OCCNc3ccnc4cc(Cl)ccc34)OC3OC4(C)CCC1C32OO4 (stereo not shown)",
    "Reading": 8.05
  },
  {
    "Compound": "OC(c1cc(C(F)(F)F)nc2c(C(F)(F)F)cccc12)C1CCCCN1 (stereo not shown) [MFQ, mefloquine, reference compound]",
    "Reading": 7.43
  },
  {
    "Compound": "COCCOCCOCCOCCn1c(-c2ccc(-n3cc(-c4ccc(OC5OC6OC7(C)CCC8C(C)CCC(C5C)C68OO7)cc4)nn3)cc2)nc2ccccc21 (stereo not shown)",
    "Reading": 8.82
  }
]

====

Assay: In vitro metabolic stability assay in microsomes
Assay type: in vitro ADME
Conditions: male, Sprague Dawley; rat liver microsomes, 1 µM, 0.4 mg/mL, pH 7.4

[
  {
    "Compound": "CC1CCC2C(C)C(OC(=O)CCC(=O)OCCNc3ccnc4cc(Cl)ccc34)OC3OC4(C)CCC1C32OO4 (stereo not drawn) [Hybrid 2]",
    "Unit Spec": "µL/min/mg",
    "microsomal CLint at 1 µM": 376
  },
  {
    "Compound": "C[C@H]1[C@H](OC(=O)CCC(=O)O)O[C@@H]2O[C@@]3(C)CC[C@H]4[C@H](C)CC[C@@H]1[C@@]24OO3 [Artesunate, artesunate, reference compound]",
    "Unit Spec": "µL/min/mg",
    "microsomal CLint at 1 µM": 442
  },
  {
    "Compound": "COCCOCCOCCOCCn1c(-c2ccc(-n3cc(-c4ccc(OC5OC6OC7(C)CCC8C(C)CCC(C5C)C68OO7)cc4)nn3)cc2)nc2ccccc21 (stereo not drawn) [Hybrid 1]",
    "Unit Spec": "µL/min/mg",
    "microsomal CLint at 1 µM": 186
  }
]

====

Test system: heme (iron II)-initiated β-hematin formation
Test: β-hematin inhibitory activity under reducing condition (R-BHIA)
Format: biochemical
Details: reductive step 10 minutes; mean (95% CI); read-out: IC50 (µM) values of R-BHIA using heme (iron II), 10 minutes
Observable: IC50

[
  {
    "Compound": "COCCOCCOCCOCCn1c(-c2ccc(-n3cc(-c4ccc(OC5OC6OC7(C)CCC8C(C)CCC(C5C)C68OO7)cc4)nn3)cc2)nc2ccccc21 (stereo not drawn)",
    "Observable": "IC50",
    "Reading": "609 µM"
  },
  {
    "Compound": "CCN(CC)CCCC(C)Nc1ccnc2cc(Cl)ccc12 (stereo not drawn) [CQ, chloroquine, reference compound]",
    "Observable": "IC50",
    "Reading": "189 µM"
  },
  {
    "Compound": "C[C@H]1[C@@H](O)O[C@@H]2O[C@@]3(C)CC[C@H]4[C@H](C)CC[C@@H]1[C@@]24OO3 [DHA, dihydroartemisinin, reference compound]",
    "Observable": "IC50",
    "Reading": "262 µM"
  }
]

====

Tested on: 3D7 strain of P. falciparum
Experiment: Host cell-mediated drug degradation: antiplasmodial activity of uRBC supernatants
Type: cell-based, Plasmodium falciparum
Settings: Plasmodium falciparum, 3D7, 0.16 h, uRBC 2.5% hematocrit, 500 nM drug; 3D7, SYBR Green I; median ± SEM (AQ mean, 95% CI); read-out: IC50 of supernatants harvested at 0.16 h

[
  {
    "Molecule": "COCCOCCOCCOCCn1c(-c2ccc(-n3cc(-c4ccc(OC5OC6OC7(C)CCC8C(C)CCC(C5C)C68OO7)cc4)nn3)cc2)nc2ccccc21 (stereo not shown)",
    "IC50 (nM)": 1.3
  },
  {
    "Molecule": "C[C@H]1[C@@H](O)O[C@@H]2O[C@@]3(C)CC[C@H]4[C@H](C)CC[C@@H]1[C@@]24OO3 [DHA, dihydroartemisinin, reference compound]",
    "IC50 (nM)": 6.7
  },
  {
    "Molecule": "CC1CCC2C(C)C(OC(=O)CCC(=O)OCCNc3ccnc4cc(Cl)ccc34)OC3OC4(C)CCC1C32OO4 (stereo not shown)",
    "IC50 (nM)": 2.8
  },
  {
    "Molecule": "CCN(CC)Cc1cc(Nc2ccnc3cc(Cl)ccc23)ccc1O [AQ, amodiaquine, reference compound]",
    "IC50 (nM)": 3.6
  }
]

====

Test system: Asynchronous NF54 strain of P. falciparum
Experiment: Speed of drug activity (pLDH)
Assay type: cell-based, Plasmodium falciparum
Settings: Plasmodium falciparum, NF54; asynchronous, viability at 72 h; mean (95% CI); read-out: IC50, 72 h
pIC50: −log10 of the molar value.

[
  {
    "Compound": "C[C@H]1[C@@H](O)O[C@@H]2O[C@@]3(C)CC[C@H]4[C@H](C)CC[C@@H]1[C@@]24OO3 [DHA, dihydroartemisinin, reference compound]",
    "pIC50": 8.57
  },
  {
    "Compound": "COCCOCCOCCOCCn1c(-c2ccc(-n3cc(-c4ccc(OC5OC6OC7(C)CCC8C(C)CCC(C5C)C68OO7)cc4)nn3)cc2)nc2ccccc21 (stereo not shown) [Hybrid 1]",
    "pIC50": 8.70
  },
  {
    "Compound": "CC1CCC2C(C)C(OC(=O)CCC(=O)OCCNc3ccnc4cc(Cl)ccc34)OC3OC4(C)CCC1C32OO4 (stereo not shown) [Hybrid 2]",
    "pIC50": 8.25
  },
  {
    "Compound": "O=C1C(O)=C([C@H]2CC[C@H](c3ccc(Cl)cc3)CC2)C(=O)c2ccccc21 [ATO, atovaquone, reference compound]",
    "pIC50": 9.11
  }
]

====

Assay: In vitro metabolic stability assay in microsomes
Type: in vitro ADME
Conditions: male, CD1; mouse liver microsomes, 1 µM, 0.4 mg/mL, pH 7.4
molecules and their reported microsomal CLint at 1 µM
Observable: microsomal CLint at 1 µM

[
  {
    "Molecule": "COCCOCCOCCOCCn1c(-c2ccc(-n3cc(-c4ccc(OC5OC6OC7(C)CCC8C(C)CCC(C5C)C68OO7)cc4)nn3)cc2)nc2ccccc21 (stereo not drawn)",
    "Reading": "240 µL/min/mg"
  },
  {
    "Molecule": "CC1CCC2C(C)C(OC(=O)CCC(=O)OCCNc3ccnc4cc(Cl)ccc34)OC3OC4(C)CCC1C32OO4 (stereo not drawn)",
    "Reading": "275 µL/min/mg"
  },
  {
    "Molecule": "C[C@H]1[C@H](OC(=O)CCC(=O)O)O[C@@H]2O[C@@]3(C)CC[C@H]4[C@H](C)CC[C@@H]1[C@@]24OO3 [Artesunate, artesunate, reference compound]",
    "Reading": "429 µL/min/mg"
  }
]

====

System: NF54 strain of P. falciparum
Experiment: Ring-stage-specific drug activity (pLDH)
Assay type: cell-based
Conditions: Plasmodium falciparum, asynchronous parasites, 6 h drug, wash, additional 66 h, median ± SEM, read-out: IC50, Asynchronous
molecules and their reported IC50

[
  {
    "Molecule": "C[C@H]1[C@@H](O)O[C@@H]2O[C@@]3(C)CC[C@H]4[C@H](C)CC[C@@H]1[C@@]24OO3 [DHA, dihydroartemisinin, reference compound]",
    "IC50": "4.6 nM"
  },
  {
    "Molecule": "CC1CCC2C(C)C(OC(=O)CCC(=O)OCCNc3ccnc4cc(Cl)ccc34)OC3OC4(C)CCC1C32OO4 (stereo not shown)",
    "IC50": "19.1 nM"
  },
  {
    "Molecule": "OC(c1cc(C(F)(F)F)nc2c(C(F)(F)F)cccc12)C1CCCCN1 (stereo not shown) [MFQ, mefloquine, reference compound]",
    "IC50": "61.6 nM"
  },
  {
    "Molecule": "COCCOCCOCCOCCn1c(-c2ccc(-n3cc(-c4ccc(OC5OC6OC7(C)CCC8C(C)CCC(C5C)C68OO7)cc4)nn3)cc2)nc2ccccc21 (stereo not shown)",
    "IC50": "3.5 nM"
  }
]

====

Tested on: NF54 strain of P. falciparum
Test: Ring-stage-specific drug activity (pLDH)
Assay type: cell-based
Settings: Plasmodium falciparum, synchronized ring stages, 6 h drug, wash, additional 66 h, median ± SEM, read-out: IC50, Ring stages

[
  {
    "Molecule": "C[C@H]1[C@@H](O)O[C@@H]2O[C@@]3(C)CC[C@H]4[C@H](C)CC[C@@H]1[C@@]24OO3 [DHA, dihydroartemisinin, reference compound]",
    "IC50 [nM]": 5
  },
  {
    "Molecule": "COCCOCCOCCOCCn1c(-c2ccc(-n3cc(-c4ccc(OC5OC6OC7(C)CCC8C(C)CCC(C5C)C68OO7)cc4)nn3)cc2)nc2ccccc21 (stereo not shown)",
    "IC50 [nM]": 1.5
  },
  {
    "Molecule": "OC(c1cc(C(F)(F)F)nc2c(C(F)(F)F)cccc12)C1CCCCN1 (stereo not shown) [MFQ, mefloquine, reference compound]",
    "IC50 [nM]": 37.2
  },
  {
    "Molecule": "CC1CCC2C(C)C(OC(=O)CCC(=O)OCCNc3ccnc4cc(Cl)ccc34)OC3OC4(C)CCC1C32OO4 (stereo not shown)",
    "IC50 [nM]": 9
  }
]
